Below is a list of entries, each paired with its recorded binding signal value.
Target: MBP-FoxP3dN (Mus musculus, UniProt Q99JB6 188-423)
Sequence: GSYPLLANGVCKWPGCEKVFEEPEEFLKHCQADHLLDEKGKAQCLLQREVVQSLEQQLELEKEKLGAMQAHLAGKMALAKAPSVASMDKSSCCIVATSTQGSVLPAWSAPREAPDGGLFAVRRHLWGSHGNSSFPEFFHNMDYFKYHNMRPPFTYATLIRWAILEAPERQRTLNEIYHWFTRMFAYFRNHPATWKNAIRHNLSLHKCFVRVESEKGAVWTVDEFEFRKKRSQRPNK
Assay: PD-seq (MBP pull-down with sequencing); 20 mM Tris-HCl pH 7.5, 100 mM NaCl, 1.5 mM MgCl2, 0.4 uM protein, 0.1 uM dsDNA library, 30 min, room temperature, amylose pull-down; high values mean tight binding
Conditions: protein: recombinant; tags: His6-MBP; chain copies: 2; dsDNA, one strand shown
In all, about 16,000 sequences were measured (“rpm ratio (pull-down/input)”: median about 0.5, highest 2% from about 5.5 on). This excerpt belongs to a sample that is enriched for the highest values.

GATGATTGTTCTCCCAGCTGATGAATTCAGCTCATCGAGTAAACAAATTTTCCTAATCTTTCTGTTCAAGCGCCATCTAC :: 0.381 RPM ratio (pull-down/input)
GATGATTGTTCTCCCAGCTGATGAATTTCCGCCGTCGAGTAAACAAATTTTCCTAATCTTTCTGTTCAAGCGCCATCTAC :: 0.555 RPM ratio (pull-down/input)

Form field: reported binding signal of GATGATTGTTCTCCCAGCTGATGAATTTGTATTTTCGAGTAAACAAATTTTCCTAATCTTTCTGTTCAAGCGCCATCTAC
4.85 RPM ratio (pull-down/input)

Could you share which binding signal value was measured for GATGATTGTTCTCCCAGCTGATGAATTCTTCGACTCGAGTAAACAAATTTTCCTAATCTTTCTGTTCAAGCGCCATCTAC ?
0.239 RPM ratio (pull-down/input)

Which binding signal value belongs to GATGATTGTTCTCCCAGCTGATGAATTGTGTATCTCGAGTAAACAAATTTTCCTAATCTTTCTGTTCAAGCGCCATCTAC ?
6.36 RPM ratio (pull-down/input)

Name the reported binding signal value associated with the sequence GATGATTGTTCTCCCAGCTGATGAATTGTAATTGTCGAGTAAACAAATTTTCCTAATCTTTCTGTTCAAGCGCCATCTAC
2.31 RPM ratio (pull-down/input)

# input sequence: GATGATTGTTCTCCCAGCTGATGAATTCCCGTCTTCGAGTAAACAAATTTTCCTAATCTTTCTGTTCAAGCGCCATCTAC ; wanted: its binding signal
0.33 RPM ratio (pull-down/input)

Entry GATGATTGTTCTCCCAGCTGATGAATTTGTATTGTCGAGTAAACAAATTTTCCTAATCTTTCTGTTCAAGCGCCATCTAC has what binding signal?
6.39 RPM ratio (pull-down/input)

Can you share its binding signal? I mean this sequence: GATGATTGTTCTCCCAGCTGATGAATTCCTGAATTCGAGTAAACAAATTTTCCTAATCTTTCTGTTCAAGCGCCATCTAC
0.481 RPM ratio (pull-down/input)

Which binding signal value is on record for GATGATTGTTCTCCCAGCTGATGAATTAGTTACATCGAGTAAACAAATTTTCCTAATCTTTCTGTTCAAGCGCCATCTAC ?
0.891 RPM ratio (pull-down/input)

Request the reported binding signal associated with GATGATTGTTCTCCCAGCTGATGAATTGAATATGTCGAGTAAACAAATTTTCCTAATCTTTCTGTTCAAGCGCCATCTAC
0.689 RPM ratio (pull-down/input)
